test system: Rattus norvegicus; assay: Compound was evaluated for percent recovery of tranexamic acid in urine from rat within 24 hr after oral administration of the dose 1 mmol/kg of body weight; assay type: ADME, organism-based; conditions: in vivo
The reader will find reported Recovery values listed item by item below.
// note: answer is a bare numeric in %

Look over these answered cases.
>>> reported_result("Cl.NC[C@H]1CC[C@H](C(=O)OC2OC(=O)c3ccccc32)CC1 (stereo partly specified)")
54
>>> reported_result("CC(C)OC(=O)OC(C)OC(=O)[C@H]1CC[C@H](CN)CC1.Cl (stereo partly specified)")
86
>>> reported_result("C[C@]1(CN)CC[C@H](C(=O)OCOC(=O)[C@H]2CC[C@H](CN)CC2)CC1.Cl.Cl")
32
>>> reported_result("CC(C)(C)C(=O)OCOC(=O)[C@H]1CC[C@H](CN)CC1.Cl")
58
>>> reported_result("CCOC(=O)OC(C)OC(=O)[C@H]1CC[C@H](CN)CC1.Cl (stereo partly specified)")
62

Consider now this further compound.
Tested system Rattus norvegicus; Recovery recorded for NC[C@H]1CC[C@H](C(=O)O)CC1 was 11

The measured values listed here are drawn from ChEMBL document CHEMBL1123423.
